Test system: LU99A
experimentNotes: relative viability (nuclei count vs DMSO), 5 days (fraction); higher = more cells survive
details: first compound 0.01 µM
measuredMetric: relative viability

compound: Cc1cn(-c2cc(NC(=O)c3ccc(C)c(Nc4nccc(-c5cccnc5)n4)c3)cc(C(F)(F)F)c2)cn1 [Nilotinib] + C[C@@H](Oc1cc(-c2cnn(C3CCNCC3)c2)cnc1N)c1c(Cl)ccc(F)c1Cl [Crizotinib] (partner 1 µM)
obsValue: 0.629
--
compound: Cc1cn(-c2cc(NC(=O)c3ccc(C)c(Nc4nccc(-c5cccnc5)n4)c3)cc(C(F)(F)F)c2)cn1 [Nilotinib] + CC1(C)CCC(c2ccc(Cl)cc2)=C(CN2CCN(c3ccc(C(=O)NS(=O)(=O)c4ccc(N[C@H](CCN5CCOCC5)CSc5ccccc5)c(S(=O)(=O)C(F)(F)F)c4)cc3)CC2)C1 [Navitoclax] (partner 0.5 µM)
obsValue: 0.985
--
compound: Cc1cn(-c2cc(NC(=O)c3ccc(C)c(Nc4nccc(-c5cccnc5)n4)c3)cc(C(F)(F)F)c2)cn1 [Nilotinib] + C[C@]1(O)C[C@@H](c2nc(-c3ccc4ccc(-c5ccccc5)nc4c3)c3c(N)nccn32)C1 [Linsitinib] (partner 1 µM)
obsValue: 0.593
--
compound: Cc1cn(-c2cc(NC(=O)c3ccc(C)c(Nc4nccc(-c5cccnc5)n4)c3)cc(C(F)(F)F)c2)cn1 [Nilotinib] + O=C(CCCCCCC(=O)Nc1ccccc1)NO [Vorinostat] (partner 1 µM)
obsValue: 0.468

----------
Tested on: NCI-H2347
experimentNotes: relative viability (nuclei count vs DMSO), 5 days (fraction); higher = more cells survive
details: first compound 2.53 µM
Measured relative viability, listed per entry.
measuredMetric: relative viability

molecule: Nc1cccc2c1CN(C1CCC(=O)NC1=O)C2=O (stereo not given) [Lenalidomide] + Nc1nc2[nH]cc(CCc3ccc(C(=O)N[C@@H](CCC(=O)O)C(=O)O)cc3)c2c(=O)[nH]1 [Pemetrexed] (partner 0.2 µM)
obsValue: 0.415
//
molecule: Nc1cccc2c1CN(C1CCC(=O)NC1=O)C2=O (stereo not given) [Lenalidomide] + C[C@@H](Oc1cc(-c2cnn(C3CCNCC3)c2)cnc1N)c1c(Cl)ccc(F)c1Cl [Crizotinib] (partner 1 µM)
obsValue: 0.83
//
molecule: Nc1cccc2c1CN(C1CCC(=O)NC1=O)C2=O (stereo not given) [Lenalidomide] + Cc1nc(NC(=O)N2CCC[C@H]2C(N)=O)sc1-c1ccnc(C(C)(C)C(F)(F)F)c1 [Alpelisib] (partner 2 µM)
obsValue: 0.964
//
molecule: Nc1cccc2c1CN(C1CCC(=O)NC1=O)C2=O (stereo not given) [Lenalidomide] + CC(=O)c1c(C)c2cnc(Nc3ccc(N4CCNCC4)cn3)nc2n(C2CCCC2)c1=O [Palbociclib] (partner 0.5 µM)
obsValue: 0.494
//
molecule: Nc1cccc2c1CN(C1CCC(=O)NC1=O)C2=O (stereo not given) [Lenalidomide] + CS(=O)(=O)CCNCc1ccc(-c2ccc3ncnc(Nc4ccc(OCc5cccc(F)c5)c(Cl)c4)c3c2)o1 [Lapatinib] (partner 2 µM)
obsValue: 0.894

----------
Test system: NCI-H1792
experimentNotes: relative viability (nuclei count vs DMSO), 5 days (fraction); higher = more cells survive
details: first compound 0.02 µM
Measured relative viability, listed per entry.

compound: CCNC(=O)c1noc(-c2cc(C(C)C)c(O)cc2O)c1-c1ccc(CN2CCOCC2)cc1 [Luminespib] + CC(=O)c1c(C)c2cnc(Nc3ccc(N4CCNCC4)cn3)nc2n(C2CCCC2)c1=O [Palbociclib] (partner 0.5 µM)
systemTested: NCI-H1792
relative viability: 0.622
--
compound: CN1CCN(CCOc2cc(OC3CCOCC3)c3c(Nc4c(Cl)ccc5c4OCO5)ncnc3c2)CC1 [Saracatinib] + O=C(c1cc(Cc2n[nH]c(=O)c3ccccc23)ccc1F)N1CCN(C(=O)C2CC2)CC1 [Olaparib] (partner 8 µM)
systemTested: NCI-H1792
relative viability: 0.537
--
compound: CN1CCN(CCOc2cc(OC3CCOCC3)c3c(Nc4c(Cl)ccc5c4OCO5)ncnc3c2)CC1 [Saracatinib] + Nc1ncn([C@H]2C[C@H](O)[C@@H](CO)O2)c(=O)n1 [Decitabine] (partner 2 µM)
systemTested: NCI-H1792
relative viability: 0.597
--
compound: CCNC(=O)c1noc(-c2cc(C(C)C)c(O)cc2O)c1-c1ccc(CN2CCOCC2)cc1 [Luminespib] + C[C@]1(O)C[C@@H](c2nc(-c3ccc4ccc(-c5ccccc5)nc4c3)c3c(N)nccn32)C1 [Linsitinib] (partner 1 µM)
systemTested: NCI-H1792
relative viability: 0.212
--
compound: CCNC(=O)c1noc(-c2cc(C(C)C)c(O)cc2O)c1-c1ccc(CN2CCOCC2)cc1 [Luminespib] + Nc1nc2[nH]cc(CCc3ccc(C(=O)N[C@@H](CCC(=O)O)C(=O)O)cc3)c2c(=O)[nH]1 [Pemetrexed] (partner 0.2 µM)
systemTested: NCI-H1792
relative viability: 0.117
--
compound: CCNC(=O)c1noc(-c2cc(C(C)C)c(O)cc2O)c1-c1ccc(CN2CCOCC2)cc1 [Luminespib] + NC(=O)Nc1cc(-c2cccc(F)c2)sc1C(=O)N[C@H]1CCCNC1 [AZD7762] (partner 0.2 µM)
systemTested: NCI-H1792
relative viability: 0.146

// data source = the supplement of paper PMC10307832
